// log10 of half-life at 0.5 μM lookup, one value per entry
Run description: Mouse liver microsome stability assay
Type: in vitro ADME
Run parameters: male, CD1, mouse, microsomes, pH 7.4
Each number you see is log10 of half-life at 0.5 μM, and the unit inside the log is min.

| Molecule | log10 of half-life at 0.5 μM |
| --- | --- |
| Cn1cc(-c2cc(S(C)(=O)=O)ccc2Oc2ccc(F)cc2F)c2cc(COc3ccccc3)[nH]c2c1=O | 1.08 |

Request: Item `Cn1cc(-c2cc(-c3cccnc3)ccc2OCC2CC2)c2cc[nH]c2c1=O` : provide log10 of half-life at 0.5 μM
Response: 1.04

Request: Annotate the molecule `Cn1cc(-c2cc(NS(=O)(=O)CCF)ccc2Oc2ccc(F)cc2F)c2cc[nH]c2c1=O` with its measured log10 of half-life at 0.5 μM.
Response: 0.60

Request: Look up log10 of half-life at 0.5 μM of `Cn1cc(-c2cc(CO)ccc2Oc2ccccc2)c2cc[nH]c2c1=O` and report it.
Response: 0.85

Request: Note log10 of half-life at 0.5 μM for the molecule shown: `Cn1cc(-c2cc(CC(=O)O)ccc2OCc2ccccc2)c2cc[nH]c2c1=O`
Response: 1.62

Request: For the molecule `CC(C)S(=O)(=O)c1ccc(NCC2CC2)c(-c2cn(C)c(=O)c3[nH]ccc23)c1` , give its reported log10 of half-life at 0.5 μM.
Response: 1.20

* * *

Tested target: human BRD4 second bromodomain (BDII_E352-M457) (Homo sapiens (Human))
Run description: TR-FRET bromodomain binding assay, BRD4 second bromodomain
pKi: recorded values
Note on units: pKi is unitless, being -log10 of a concentration expressed in mol/L.

| Molecule | pKi |
| --- | --- |
| Cn1cc(-c2cc(S(C)(=O)=O)ccc2OC[C@H]2CCC(=O)N2)c2cc[nH]c2c1=O | 6.36 |
| Cn1cc(-c2cc(C(=O)N3CCC(NC(=O)OC(C)(C)C)CC3)ccc2Oc2ccc(F)cc2F)c2cc[nH]c2c1=O | 7.11 |
| Cn1cc(-c2cc(C3=CCNCC3)ccc2OCC2CC2)c2cc[nH]c2c1=O | 5.90 |
| Cn1cc(-c2cc(S(C)(=O)=O)ccc2NCC2CCOC2)c2cc[nH]c2c1=O (centres unmarked) | 7.39 |
| Cn1cc(-c2cc(NS(C)(=O)=O)ccc2OC2CCOC2)c2cc[nH]c2c1=O (centres unmarked) | 7.87 |
| Cn1cc(-c2cc(S(C)(=O)=O)ccc2Oc2cc(F)cc(F)c2)c2cc[nH]c2c1=O | 8.22 |

Now for the molecule whose pKi we want.
Request: Specify pKi for `Cn1cc(-c2cc(CO)ccc2Oc2ccccc2)c2cc[nH]c2c1=O` and stop.
Response: 9.17

* * *

Tested target: human BRD4 first bromodomain (BDI_K57-E168) (Homo sapiens (Human))
Run description: TR-FRET bromodomain binding assay, BRD4 first bromodomain
pKi: −log10 of the molar value.
Quick rule: pKi of at least 8 means criterion met, below that means criterion not met.

Reference set, count: 2
| Item smiles | Assigned class |
| --- | --- |
| Cn1nc(-c2cc(NS(C)(=O)=O)ccc2Oc2ccc(F)cc2F)c2cc[nH]c2c1=O | criterion not met |
| CN(C)c1ccc(NC(=O)c2ccc(Oc3ccc(F)cc3F)c(-c3cn(C)c(=O)c4[nH]ccc34)c2)cc1 | criterion not met |

We next turn to a different molecule, shown below.
Request: Reported pKi at or above 8? `CCOC(=O)c1cc2c(-c3cc(N(CC)S(C)(=O)=O)ccc3Oc3ccccc3)nn(C)c(=O)c2[nH]1`
Response: criterion not met
